From: patent US10882837B2

STUDY SYSTEM: GCGR (Homo sapiens, UniProt P47871)
Sequence (P47871 26-477, species assumed): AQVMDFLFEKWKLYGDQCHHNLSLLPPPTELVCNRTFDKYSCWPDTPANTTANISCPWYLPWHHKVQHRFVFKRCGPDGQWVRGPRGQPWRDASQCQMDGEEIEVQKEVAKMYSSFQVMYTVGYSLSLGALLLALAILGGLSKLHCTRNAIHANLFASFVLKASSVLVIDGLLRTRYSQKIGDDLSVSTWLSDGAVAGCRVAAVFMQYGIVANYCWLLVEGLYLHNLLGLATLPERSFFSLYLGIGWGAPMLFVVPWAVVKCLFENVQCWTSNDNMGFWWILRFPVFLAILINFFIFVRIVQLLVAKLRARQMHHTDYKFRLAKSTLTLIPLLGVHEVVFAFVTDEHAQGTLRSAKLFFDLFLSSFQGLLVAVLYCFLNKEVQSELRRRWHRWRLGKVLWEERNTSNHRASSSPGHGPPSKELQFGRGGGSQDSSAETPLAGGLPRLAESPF
MEASUREMENT PROTOCOL: I125-glucagon binding assay (competition, GCGR membrane fractions)
Set-up: expressed in transfected cells; host or cells: CHO-K1
REPORTED CONDITIONS: competition with I125-glucagon 0.0625 nM; membrane fractions from GCGR overexpressed CHO-K1 cells
MEASURED PROPERTY: IC50 (nM)
Record the value in nM, omitting the unit from your answer.

The examples below pair each entry with its known result.
STRUCTURE STRING: CCOC(=O)CCNC(=O)c1ccc(N[C@H](c2ccc(-c3nc(-c4ccccc4)no3)cc2)C(C)C)cc1
UNIT TEXT: nM
EXPERIMENTAL RESULT: 1740

STRUCTURE STRING: CC(C)[C@H](Nc1ccc(C(=O)NCCC(=O)O)cc1)c1ccc(-c2nc3ccccc3s2)cc1
UNIT TEXT: nM
EXPERIMENTAL RESULT: 42.3

STRUCTURE STRING: CC(C)[C@H](Nc1ccc(C(=O)NCCS(=O)(=O)O)cc1)c1ccc(-c2nnc(-c3ccccc3)o2)cc1
UNIT TEXT: nM
EXPERIMENTAL RESULT: 101

Now for a further compound.
Query: IC50; subject: "CCOC(=O)CCNC(=O)c1ccc(N[C@@H](CC(C)C)c2ccc(-c3nc(-c4ccccc4)no3)cc2)cc1"
637
